Origin of values: paper PMC7982521

- Protocol Details: Multi-component pharmacokinetics in rat plasma after oral administration of RB, RPA or RB-RPA extracts (UPLC-HRMS, non-compartmental analysis)
- Type: in vivo, Sprague-Dawley rats
- Test Parameters: male, Sprague-Dawley, rat, plasma, po, 45 g/kg, rat plasma, oral RB single extract 45 g-herb/kg, mean ± SD, n = 7; read-out: Cmax
- Experimental: (Beijing, China, No. SCXK2018-0011). […] All rats were free to access the water and food until 12 h before the experiment. […] So, we applied the method of switching ion modes in the detection process to quantify all analytes better. […] UPLC/MS/MS calibration and quantitation data were processed with Xcalibur workstation (Thermo-Fisher Scientific Inc., Waltham, MA, United States). […]
Test Readout: Cmax (ng/mL)

1) C[C@H]1O[C@@H](O[C@H]2CC[C@@]3(C)[C@@H](CC[C@]4(C)[C@@H]3C=C[C@]35OC[C@@]6(CCC(C)(C)C[C@H]63)[C@@H](O)C[C@]54C)[C@]2(C)CO)[C@H](O)[C@@H](O[C@@H]2O[C@H](CO)[C@@H](O)[C@H](O)[C@H]2O)[C@H]1O [Saikosaponin A] | 68.4

###

Item-by-item account of t1/2
- Protocol Details: Multi-component pharmacokinetics in rat plasma after oral administration of RB, RPA or RB-RPA extracts (UPLC-HRMS, non-compartmental analysis)
- Type: in vivo, Sprague-Dawley rats
- Test Parameters: rat plasma, oral RB-RPA mixed extracts (45 g-herb/kg RB + 45 g-herb/kg RPA), mean ± SD, n = 7
- Protocol: (Beijing, China, No. SCXK2018-0011). […] All rats were free to access the water and food until 12 h before the experiment. […] So, we applied the method of switching ion modes in the detection process to quantify all analytes better. […] UPLC/MS/MS calibration and quantitation data were processed with Xcalibur workstation (Thermo-Fisher Scientific Inc., Waltham, MA, United States). […]
Test Readout: t1/2 (h)

1. C[C@H]1O[C@@H](O[C@@H]2CC[C@@]3(C)[C@@H](CC[C@]4(C)[C@@H]3C=C[C@]35OC[C@@]6(CCC(C)(C)C[C@H]63)[C@@H](O)C[C@]54C)[C@@]2(C)CO)[C@H](O)[C@@H](O)[C@H]1O | 1.48
2. C[C@@H]1O[C@@H](O[C@@H]2[C@H](O)[C@@H](O)[C@H](O[C@H]3CC[C@@]4(C)C(CC[C@]5(C)C4C=C[C@]46OC[C@@]7(CCC(C)(C)CC74)[C@@H](O)C[C@]65C)C3(C)C)O[C@@H]2CO[C@@H]2O[C@H](CO)[C@@H](O)[C@H](O)[C@H]2O)[C@H](O)[C@H](O)[C@H]1O (stereo partly shown) | 2.53
3. CC1(C)CC[C@]23CO[C@@]4(C=C[C@@H]5[C@@]6(C)CC[C@H](O)[C@@](C)(CO)[C@@H]6CC[C@@]5(C)[C@]4(C)C[C@H]2O)[C@@H]3C1 | 6.53
4. CC1(C)CC[C@]23CO[C@@]4(C=C[C@@H]5[C@@]6(C)CC[C@H](O)C(C)(C)[C@@H]6CC[C@@]5(C)[C@]4(C)C[C@@H]2O)[C@@H]3C1 | 3.99

###

Item-by-item account of AUC0-t
- Protocol Details: Multi-component pharmacokinetics in rat plasma after oral administration of RB, RPA or RB-RPA extracts (UPLC-HRMS, non-compartmental analysis)
- Format: in vivo, Sprague-Dawley rats
- Test Parameters: rat plasma, oral administration of mixed extracts RB-RPA, mean ± SD, n = 7
Where a name gives a salt, the structure may show the parent alone.
Test Readout: AUC0-t (ng·h/mL)

1) CC1C2OC3(C)CC(=O)C1CC3(O)O2 (stereo not shown) [Paeonimetabolin I] | 4248.67
2) C[C@@]12C[C@@]3(O)O[C@@H](O1)[C@]1(CO)[C@H]3C[C@@]12O[C@@H]1O[C@H](CO)[C@@H](O)[C@H](O)[C@H]1O [Desbenzoylpaeoniflorin] | 27.39
3) C[C@]12C[C@@H](O)[C@@H]3C[C@@]1(O[C@@H]1O[C@H](CO)[C@@H](O)[C@H](O)[C@H]1O)[C@@]3(COC(=O)c1ccccc1)C(=O)O2 [Albiflorin] | 1834.06
4) O=S(=O)(O)Oc1cccc(O)c1O [Pyrogallol sulfate] | 217.62
